- Tested on: Bacillus subtilis
- assay_name: Antimicrobial activity against Bacillus subtilis 104 by serial dilution method
- Assay type: functional
- measurement_conditions: Bacillus subtilis, 104
Mark Criterion met only when MIC stays strictly below 5 µg/mL. Values equal to the cut-off are Criterion not met.

Please review the following examples before continuing.
CO[C@H]1/C=C/O[C@@]2(C)Oc3c(C)c(O)c4c(O)c(c(/C=N/NC(=O)CN5CCN(c6ccccc6)CC5)c(O)c4c3C2=O)NC(=O)/C(C)=C\C=C\[C@H](C)[C@H](O)[C@@H](C)[C@@H](O)[C@@H](C)[C@H](OC(C)=O)[C@@H]1C    Criterion not met
CO[C@H]1/C=C/O[C@@]2(C)Oc3c(C)c(O)c4c(O)c(c(/C=N/NC(=O)CN5CCN(c6ccc([N+](=O)[O-])cc6)CC5)c(O)c4c3C2=O)NC(=O)/C(C)=C\C=C\[C@H](C)[C@H](O)[C@@H](C)[C@@H](O)[C@@H](C)[C@H](OC(C)=O)[C@@H]1C    Criterion not met
CO[C@H]1/C=C/O[C@@]2(C)Oc3c(C)c(O)c4c(O)c(c(/C=N/NC(=O)CN5CCN(c6ccc(C#N)cc6)CC5)c(O)c4c3C2=O)NC(=O)/C(C)=C\C=C\[C@H](C)[C@H](O)[C@@H](C)[C@@H](O)[C@@H](C)[C@H](OC(C)=O)[C@@H]1C    Criterion not met

Now consider the entry below.
Query :: Does the reported MIC of the following compound sit strictly below 5 µg/mL? CO[C@H]1/C=C/O[C@@]2(C)Oc3c(C)c(O)c4c(O)c(c(/C=N/NC(=O)CN5CCN(c6ccc(C(C)(C)C)cc6)CC5)c(O)c4c3C2=O)NC(=O)/C(C)=C\C=C\[C@H](C)[C@H](O)[C@@H](C)[C@@H](O)[C@@H](C)[C@H](OC(C)=O)[C@@H]1C
Result :: Criterion met

###

For each of the molecules below, state its MIC.
- System: Clostridium perfringens
- assay_name: Antimicrobial activity against Clostridium perfringens 2 by serial dilution method
- Assay type: functional
- measurement_conditions: Clostridium perfringens, 2
One number for each entry, in ng/mL.

For orientation, consider the following solved cases.
CO[C@H]1/C=C/O[C@@]2(C)Oc3c(C)c(O)c4c(O)c(c(/C=N/NC(=O)CN5CCN(c6ccc(C)cc6)CC5)c(O)c4c3C2=O)NC(=O)/C(C)=C\C=C\[C@H](C)[C@H](O)[C@@H](C)[C@@H](O)[C@@H](C)[C@H](OC(C)=O)[C@@H]1C    7
CO[C@H]1/C=C/O[C@@]2(C)Oc3c(C)c(O)c4c(O)c(c(/C=N/N5CCN(C)CC5)c(O)c4c3C2=O)NC(=O)/C(C)=C\C=C\[C@H](C)[C@H](O)[C@@H](C)[C@@H](O)[C@@H](C)[C@H](OC(C)=O)[C@@H]1C    3
CO[C@H]1/C=C/O[C@@]2(C)Oc3c(C)c(O)c4c(O)c(c(/C=N/NC(=O)CN5CCN(c6ccc(C(F)(F)F)cc6)CC5)c(O)c4c3C2=O)NC(=O)/C(C)=C\C=C\[C@H](C)[C@H](O)[C@@H](C)[C@@H](O)[C@@H](C)[C@H](OC(C)=O)[C@@H]1C    2
CO[C@H]1/C=C/O[C@@]2(C)Oc3c(C)c(O)c4c(O)c(c(/C=N/NC(=O)CN5CCN(c6ccccc6)CC5)c(O)c4c3C2=O)NC(=O)/C(C)=C\C=C\[C@H](C)[C@H](O)[C@@H](C)[C@@H](O)[C@@H](C)[C@H](OC(C)=O)[C@@H]1C    7

Give MIC for each listed item.
1. CO[C@H]1/C=C/O[C@@]2(C)Oc3c(C)c(O)c4c(O)c(c(/C=N/NC(=O)CN5CCN(c6ccc(C#N)cc6)CC5)c(O)c4c3C2=O)NC(=O)/C(C)=C\C=C\[C@H](C)[C@H](O)[C@@H](C)[C@@H](O)[C@@H](C)[C@H](OC(C)=O)[C@@H]1C
2. COc1ccc(N2CCN(CC(=O)N/N=C/c3c4c(O)c5c(O)c(C)c6c(c5c3O)C(=O)[C@@](C)(O/C=C/[C@H](OC)[C@@H](C)[C@@H](OC(C)=O)[C@H](C)[C@H](O)[C@H](C)[C@@H](O)[C@@H](C)/C=C/C=C(/C)C(=O)N4)O6)CC2)cc1
3. CO[C@H]1/C=C/O[C@@]2(C)Oc3c(C)c(O)c4c(O)c(c(/C=N/NC(=O)CN5CCN(c6ccc(Cl)cc6)CC5)c(O)c4c3C2=O)NC(=O)/C(C)=C\C=C\[C@H](C)[C@H](O)[C@@H](C)[C@@H](O)[C@@H](C)[C@H](OC(C)=O)[C@@H]1C
4. CO[C@H]1/C=C/O[C@@]2(C)Oc3c(C)c(O)c4c(O)c(c(/C=N/NC(=O)CN5CCN(c6ccc(Br)cc6)CC5)c(O)c4c3C2=O)NC(=O)/C(C)=C\C=C\[C@H](C)[C@H](O)[C@@H](C)[C@@H](O)[C@@H](C)[C@H](OC(C)=O)[C@@H]1C
5. CO[C@H]1/C=C/O[C@@]2(C)Oc3c(C)c(O)c4c(O)c(c(/C=N/NC(=O)CN5CCN(c6ccc([N+](=O)[O-])cc6)CC5)c(O)c4c3C2=O)NC(=O)/C(C)=C\C=C\[C@H](C)[C@H](O)[C@@H](C)[C@@H](O)[C@@H](C)[C@H](OC(C)=O)[C@@H]1C

Result ::
1: 7; 2: 7; 3: 6; 4: 6; 5: 5

###

Consider the following molecules; for each one, report its MIC.
- System: Bacillus subtilis
- assay_name: Antimicrobial activity against Bacillus subtilis 104 by serial dilution method
- Type: functional
- measurement_conditions: Bacillus subtilis, 104
Give bare numbers, in µg/mL.

Worked cases, answers included:
CO[C@H]1/C=C/O[C@@]2(C)Oc3c(C)c(O)c4c(O)c(c(/C=N/NC(=O)CN5CCN(c6ccc(C)cc6)CC5)c(O)c4c3C2=O)NC(=O)/C(C)=C\C=C\[C@H](C)[C@H](O)[C@@H](C)[C@@H](O)[C@@H](C)[C@H](OC(C)=O)[C@@H]1C    5.1
CO[C@H]1/C=C/O[C@@]2(C)Oc3c(C)c(O)c4c(O)c(c(/C=N/NC(=O)CN5CCN(c6ccc(Br)cc6)CC5)c(O)c4c3C2=O)NC(=O)/C(C)=C\C=C\[C@H](C)[C@H](O)[C@@H](C)[C@@H](O)[C@@H](C)[C@H](OC(C)=O)[C@@H]1C    5

MIC measured on CO[C@H]1/C=C/O[C@@]2(C)Oc3c(C)c(O)c4c(O)c(c(/C=N/NC(=O)CN5CCN(c6ccc(C(C)C)cc6)CC5)c(O)c4c3C2=O)NC(=O)/C(C)=C\C=C\[C@H](C)[C@H](O)[C@@H](C)[C@@H](O)[C@@H](C)[C@H](OC(C)=O)[C@@H]1C = 4.9
